Each entry below lists one item and its recorded pKi value.
system: D(1A) dopamine receptor (Rattus norvegicus, UniProt P18901)
Sequence (P18901 whole entry): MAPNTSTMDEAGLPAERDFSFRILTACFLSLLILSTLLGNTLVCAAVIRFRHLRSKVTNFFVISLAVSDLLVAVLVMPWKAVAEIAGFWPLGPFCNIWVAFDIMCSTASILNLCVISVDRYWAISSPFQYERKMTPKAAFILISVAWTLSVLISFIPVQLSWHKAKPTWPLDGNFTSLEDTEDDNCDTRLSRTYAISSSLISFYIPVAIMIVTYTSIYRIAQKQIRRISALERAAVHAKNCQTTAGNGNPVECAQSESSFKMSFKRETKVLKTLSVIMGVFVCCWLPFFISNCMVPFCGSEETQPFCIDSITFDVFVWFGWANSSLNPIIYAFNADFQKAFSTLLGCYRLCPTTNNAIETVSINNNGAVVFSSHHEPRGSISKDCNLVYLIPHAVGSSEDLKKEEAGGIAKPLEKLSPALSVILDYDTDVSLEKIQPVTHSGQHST
assay.procedure: Inhibition of [3H]SCH-23,390 binding to Dopamine D1 receptor from rat striatum
test.context: read-out: Ki
pKi: −log10 of the molar value.

Known pKi results, listed for orientation:
>>> result("O=C1C2C3C=CC(C3)C2C(=O)N1OCCCN1CCN(c2cccc(C(F)(F)F)c2)CC1 (stereo not given)")
5.35
>>> result("COc1ccccc1N1CCN(CCCON2C(=O)C3C4C=CC(C4)C3C2=O)CC1 (stereo not given)")
"< 5.00"
>>> result("O=C1C2C3C=CC(C3)C2C(=O)N1OCCN1CCN(c2ccccc2Cl)CC1 (stereo not given)")
"< 5.00"
>>> result("O=C1C2C3C=CC(C3)C2C(=O)N1OCCCN1CCN(c2cccc(Cl)c2)CC1 (stereo not given)")
"< 5.00"

We now examine a further molecule.
// pKi lookup, key: O=C1C2C3C=CC(C3)C2C(=O)N1OCCN1CCN(c2cccc(C(F)(F)F)c2)CC1 (stereo not given) < 5.00

* * *

Each entry below lists one item and its recorded Ki value.
system: UniProt P61169
Sequence (P61169 whole entry): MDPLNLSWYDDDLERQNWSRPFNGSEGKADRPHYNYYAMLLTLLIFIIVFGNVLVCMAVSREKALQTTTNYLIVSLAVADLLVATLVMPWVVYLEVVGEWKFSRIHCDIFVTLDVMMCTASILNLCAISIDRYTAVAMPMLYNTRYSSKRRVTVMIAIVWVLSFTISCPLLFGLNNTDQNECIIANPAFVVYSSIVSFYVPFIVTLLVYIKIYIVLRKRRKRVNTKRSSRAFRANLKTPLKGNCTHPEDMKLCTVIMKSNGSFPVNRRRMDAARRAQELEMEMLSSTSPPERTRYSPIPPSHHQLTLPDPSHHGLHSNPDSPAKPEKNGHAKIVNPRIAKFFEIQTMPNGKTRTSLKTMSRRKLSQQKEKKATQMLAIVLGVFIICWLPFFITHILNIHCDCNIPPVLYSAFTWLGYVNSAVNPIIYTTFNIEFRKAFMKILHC
assay.procedure: Inhibition of [3H]spiperone binding to Dopamine D2 receptor from rat striatum
test.context: read-out: Ki

>>> result("O=C1C2C3C=CC(C3)C2C(=O)N1OCCN1CCN(c2ccccc2Cl)CC1 (centres undefined)")
"> 10 µM"

// Ki lookup, key: O=C1C2C3C=CC(C3)C2C(=O)N1OCCN1CCN(c2cccc(C(F)(F)F)c2)CC1 (centres undefined) > 10 µM

// repeat for O=C1C2C3C=CC(C3)C2C(=O)N1OCCCN1CCN(c2cccc(C(F)(F)F)c2)CC1 (centres undefined) and report 0.67 µM

// repeat for COc1ccccc1N1CCN(CCCON2C(=O)C3C4C=CC(C4)C3C2=O)CC1 (centres undefined) and report > 10 µM

* * *

pKi: −log10 of the molar value.
Here's what we have: pKi numbers for 5-hydroxytryptamine receptor 2A (Rattus norvegicus, UniProt P14842).
attribute.measured: pKi

Known pKi results, listed for orientation:
>>> measured_number("O=C1C2C3C=CC(C3)C2C(=O)N1OCCN1CCN(c2ccccn2)CC1 (configuration not stated)")
5.45
>>> measured_number("O=C1C2C3C=CC(C3)C2C(=O)N1OCCCN1CCN(c2cccc(C(F)(F)F)c2)CC1 (configuration not stated)")
5.57
>>> measured_number("O=C1C2C3C=CC(C3)C2C(=O)N1OCCN1CCN(c2cccc(C(F)(F)F)c2)CC1 (configuration not stated)")
5.40

P: O=C1C2C3C=CC(C3)C2C(=O)N1OCCCN1CCN(c2ncccn2)CC1 (configuration not stated)
Q: O=C1C2C3C=CC(C3)C2C(=O)N1OCCN1CCN(c2cccc(Cl)c2)CC1 (configuration not stated)
Pick the one with the larger pKi: P vs Q Select an item and report its label. P
(P: 6.93, Q: 5.57)

* * *

system: 5-hydroxytryptamine receptor 1A (Rattus norvegicus)
Sequence (P19327 whole entry): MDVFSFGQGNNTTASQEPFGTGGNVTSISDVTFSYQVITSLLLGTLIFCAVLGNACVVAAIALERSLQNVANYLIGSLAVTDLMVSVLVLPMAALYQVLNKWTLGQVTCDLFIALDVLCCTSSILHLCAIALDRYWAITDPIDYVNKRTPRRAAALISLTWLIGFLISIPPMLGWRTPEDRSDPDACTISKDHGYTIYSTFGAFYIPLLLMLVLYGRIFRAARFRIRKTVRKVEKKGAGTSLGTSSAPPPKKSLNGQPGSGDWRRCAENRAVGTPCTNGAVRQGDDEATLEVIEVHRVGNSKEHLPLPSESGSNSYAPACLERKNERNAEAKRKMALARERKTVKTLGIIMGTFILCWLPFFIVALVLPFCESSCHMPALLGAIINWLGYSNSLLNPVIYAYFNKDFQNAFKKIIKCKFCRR
attribute.measured: Ki (nM)

Known Ki results, listed for orientation:
>>> measured_number("O=C1C2C3C=CC(C3)C2C(=O)N1OCCCN1CCN(c2cccc(Cl)c2)CC1 (stereo unspecified)")
3.36
>>> measured_number("O=C1C2C3C=CC(C3)C2C(=O)N1OCCN1CCN(c2cccc(Cl)c2)CC1 (stereo unspecified)")
27.1
>>> measured_number("O=C1C2C3C=CC(C3)C2C(=O)N1OCCN1CCN(c2cccc(C(F)(F)F)c2)CC1 (stereo unspecified)")
2.14
>>> measured_number("O=C1C2C3C=CC(C3)C2C(=O)N1OCCN1CCN(c2ccccn2)CC1 (stereo unspecified)")
382

I: O=C1C2C3C=CC(C3)C2C(=O)N1OCCCN1CCN(c2ccccn2)CC1 (stereo unspecified)
II: O=C1C2C3C=CC(C3)C2C(=O)N1OCCCN1CCN(c2ccccc2Cl)CC1 (stereo unspecified)
Hey, which is lower on measured Ki, I or II ? Select an item and report its label. II
